Could you please report measured self-splicing fitness (ln) for the items listed next?
Assay: self-splicing fitness, log relative to wild type (ln ratio); higher = more splicing; Tetrahymena group I intron in knt gene, E. coli kanamycin selection, DiMSum; sequences stand for … in CUCUCU…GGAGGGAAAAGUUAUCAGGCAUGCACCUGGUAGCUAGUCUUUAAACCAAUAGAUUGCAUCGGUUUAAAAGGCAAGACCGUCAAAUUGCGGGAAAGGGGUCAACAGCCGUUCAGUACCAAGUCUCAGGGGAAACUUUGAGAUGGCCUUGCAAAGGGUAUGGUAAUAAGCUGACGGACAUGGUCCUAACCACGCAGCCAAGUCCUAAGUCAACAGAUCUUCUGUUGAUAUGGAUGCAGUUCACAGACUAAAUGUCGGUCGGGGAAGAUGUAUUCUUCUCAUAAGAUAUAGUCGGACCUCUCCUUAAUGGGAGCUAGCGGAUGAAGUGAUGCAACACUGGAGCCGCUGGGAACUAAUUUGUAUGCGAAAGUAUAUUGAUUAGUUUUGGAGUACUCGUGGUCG;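 note: selection with 25 µg/mL kanamycin versus none on LB agar overnight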
Conditions: 37 °C
Please state the value as a number alone, without comment.

Name the reported self-splicing fitness (ln) value associated with the sequence `CAGUAGCAAUAUUACGCUAC`
-2.7

Name the reported self-splicing fitness (ln) value associated with the sequence `CGCAAGCAAUAUUACGUAAC`
-2.31

Name the reported self-splicing fitness (ln) value associated with the sequence `UGUUAGCAAUAUUACGCCCU`
0.532

Name the reported self-splicing fitness (ln) value associated with the sequence `GACAAGCAAUAUUACGAGAC`
-2.29

Name the reported self-splicing fitness (ln) value associated with the sequence `AGAAAGCAAUAUUACGGGUC`
-3.35

Name the reported self-splicing fitness (ln) value associated with the sequence `ACGGAGCAAUAUUACGACUA`
-2.09

Name the reported self-splicing fitness (ln) value associated with the sequence `UACAAGCAAUAUUACGUUCC`
-2.58

Name the reported self-splicing fitness (ln) value associated with the sequence `AAGUAGCAAUAUUACGUAGA`
-1.45

Name the reported self-splicing fitness (ln) value associated with the sequence `GAAUAGCAAUAUUACGGGUG`
-1.03

Name the reported self-splicing fitness (ln) value associated with the sequence `AGCGAGCAAUAUUACGCUUU`
-2.89

Name the reported self-splicing fitness (ln) value associated with the sequence `AUGAAGCAAUAUUACGAGGC`
-2.77

Name the reported self-splicing fitness (ln) value associated with the sequence `UGAAAGCAAUAUUACGUUCG`
-0.54

Name the reported self-splicing fitness (ln) value associated with the sequence `AAUCAGCAAUAUUACGGCUG`
-1.87

Name the reported self-splicing fitness (ln) value associated with the sequence `CCUUAGCAAUAUUACGUAUG`
-0.234

Name the reported self-splicing fitness (ln) value associated with the sequence `UUUUAGCAAUAUUACGCGGU`
-1.53

Name the reported self-splicing fitness (ln) value associated with the sequence `UCUAAGCAAUAUUACGCGUA`
-2.27

Name the reported self-splicing fitness (ln) value associated with the sequence `AAAUAGCAAUAUUACGGACU`
0.206

Name the reported self-splicing fitness (ln) value associated with the sequence `GGUUAGCAAUAUUACGUCCU`
-0.367

Name the reported self-splicing fitness (ln) value associated with the sequence `AAGAAGCAAUAUUACGCCAU`
-2.62

Name the reported self-splicing fitness (ln) value associated with the sequence `CCCUAGCAAUAUUACGUACC`
-1.05

Name the reported self-splicing fitness (ln) value associated with the sequence `GUCGAGCAAUAUUACGUGGC`
-1.09

Name the reported self-splicing fitness (ln) value associated with the sequence `CUUUAGCAAUAUUACGAUGA`
-2.01

Name the reported self-splicing fitness (ln) value associated with the sequence `AGCCAGCAAUAUUACGAGCG`
-0.0302

Name the reported self-splicing fitness (ln) value associated with the sequence `GCUCAGCAAUAUUACGGGUU`
-1.09

Name the reported self-splicing fitness (ln) value associated with the sequence `AGGUAGCAAUAUUACGCCAU`
-0.939

Name the reported self-splicing fitness (ln) value associated with the sequence `UGGUAGCAAUAUUACGGAAC`
-0.88

Name the reported self-splicing fitness (ln) value associated with the sequence `CAGCAGCAAUAUUACGCAAC`
-1.37

Name the reported self-splicing fitness (ln) value associated with the sequence `CUCUAGCAAUAUUACGCUUA`
-3.06

Name the reported self-splicing fitness (ln) value associated with the sequence `AUAUAGCAAUAUUACGUCCG`
-1.64

Name the reported self-splicing fitness (ln) value associated with the sequence `GCGAAGCAAUAUUACGUUGU`
-2.58

Name the reported self-splicing fitness (ln) value associated with the sequence `UUGAAGCAAUAUUACGUAUU`
-0.933

Name the reported self-splicing fitness (ln) value associated with the sequence `GGAGAGCAAUAUUACGGGAG`
-2.37

Name the reported self-splicing fitness (ln) value associated with the sequence `UGCGAGCAAUAUUACGGGUC`
-2.72

Name the reported self-splicing fitness (ln) value associated with the sequence `GCGAAGCAAUAUUACGCGCC`
-1.73

Name the reported self-splicing fitness (ln) value associated with the sequence `UGGUAGCAAUAUUACGUCCA`
-0.608

Name the reported self-splicing fitness (ln) value associated with the sequence `GCUGAGCAAUAUUACGGGUG`
-1.29

Name the reported self-splicing fitness (ln) value associated with the sequence `GCGUAGCAAUAUUACGCGAC`
-1.42

Name the reported self-splicing fitness (ln) value associated with the sequence `AAUUAGCAAUAUUACGCUCU`
0.54

Name the reported self-splicing fitness (ln) value associated with the sequence `CUAAAGCAAUAUUACGAUGU`
-2.58

Name the reported self-splicing fitness (ln) value associated with the sequence `ACUCAGCAAUAUUACGAGAG`
-0.637

Name the reported self-splicing fitness (ln) value associated with the sequence `GCACAGCAAUAUUACGAACG`
-0.558

Name the reported self-splicing fitness (ln) value associated with the sequence `ACCGAGCAAUAUUACGCUAA`
-2.05

Name the reported self-splicing fitness (ln) value associated with the sequence `GGGCAGCAAUAUUACGAAGU`
-0.794

Name the reported self-splicing fitness (ln) value associated with the sequence `AGACAGCAAUAUUACGCAGU`
-3.04

Name the reported self-splicing fitness (ln) value associated with the sequence `GUACAGCAAUAUUACGUGAU`
-0.556

Name the reported self-splicing fitness (ln) value associated with the sequence `CCCAAGCAAUAUUACGCACU`
-2.72

Name the reported self-splicing fitness (ln) value associated with the sequence `UAGCAGCAAUAUUACGGGCA`
-0.41

Name the reported self-splicing fitness (ln) value associated with the sequence `CGCGAGCAAUAUUACGCCUC`
-1.38

Name the reported self-splicing fitness (ln) value associated with the sequence `GCCCAGCAAUAUUACGCGAC`
-1.55

Name the reported self-splicing fitness (ln) value associated with the sequence `ACGUAGCAAUAUUACGAUCG`
-0.0917

Name the reported self-splicing fitness (ln) value associated with the sequence `AAUAAGCAAUAUUACGGUCU`
0.0374

Name the reported self-splicing fitness (ln) value associated with the sequence `ACGCAGCAAUAUUACGUAGC`
-1.89

Name the reported self-splicing fitness (ln) value associated with the sequence `GCUAAGCAAUAUUACGAGUG`
-0.811

Name the reported self-splicing fitness (ln) value associated with the sequence `CGCCAGCAAUAUUACGCGUC`
-2.33

Name the reported self-splicing fitness (ln) value associated with the sequence `CACAAGCAAUAUUACGAACC`
-1.98

Name the reported self-splicing fitness (ln) value associated with the sequence `CCGAAGCAAUAUUACGUUUA`
-2.95

Name the reported self-splicing fitness (ln) value associated with the sequence `CUGCAGCAAUAUUACGGGUA`
-0.797

Name the reported self-splicing fitness (ln) value associated with the sequence `UUGCAGCAAUAUUACGCUCU`
-0.306

Name the reported self-splicing fitness (ln) value associated with the sequence `UCACAGCAAUAUUACGCCGU`
-3.02

Name the reported self-splicing fitness (ln) value associated with the sequence `AAUCAGCAAUAUUACGGACU`
-0.697

Name the reported self-splicing fitness (ln) value associated with the sequence `ACUAAGCAAUAUUACGGGUG`
-0.673

----------
Experiment: self-splicing fitness, log relative to wild type (ln ratio); higher = more splicing; Tetrahymena group I intron in knt gene, E. coli kanamycin selection, DiMSum; sequences stand for … in CUCUCU…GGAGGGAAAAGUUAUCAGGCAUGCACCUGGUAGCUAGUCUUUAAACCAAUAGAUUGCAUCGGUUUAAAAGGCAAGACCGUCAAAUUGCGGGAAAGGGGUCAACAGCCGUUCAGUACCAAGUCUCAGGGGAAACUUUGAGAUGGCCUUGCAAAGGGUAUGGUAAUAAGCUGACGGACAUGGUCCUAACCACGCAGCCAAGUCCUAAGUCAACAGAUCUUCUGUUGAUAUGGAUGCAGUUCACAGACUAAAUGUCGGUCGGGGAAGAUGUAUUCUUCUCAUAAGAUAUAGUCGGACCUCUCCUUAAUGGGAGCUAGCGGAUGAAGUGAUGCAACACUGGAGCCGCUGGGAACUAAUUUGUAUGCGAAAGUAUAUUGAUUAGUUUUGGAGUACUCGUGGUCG
Settings: 30 °C
Everything with self-splicing fitness (ln) lower than -3 is NOT MET; everything else, including exactly -3, is MET.

Given the entry `UACAAGCAAUAUUACGUCGU` , answer whether its self-splicing fitness (ln) meets or surpasses -3.
NOT MET

Given the entry `UCAAAGCAAUAUUACGGAGA` , answer whether its self-splicing fitness (ln) meets or surpasses -3.
NOT MET

Given the entry `UAUUAGCAAUAUUACGAAUA` , answer whether its self-splicing fitness (ln) meets or surpasses -3.
MET

Given the entry `AGCCAGCAAUAUUACGGGGG` , answer whether its self-splicing fitness (ln) meets or surpasses -3.
NOT MET

Given the entry `UCGCAGCAAUAUUACGAACU` , answer whether its self-splicing fitness (ln) meets or surpasses -3.
NOT MET

Given the entry `CCUUAGCAAUAUUACGAAUC` , answer whether its self-splicing fitness (ln) meets or surpasses -3.
MET

Given the entry `GGGAAGCAAUAUUACGUCGU` , answer whether its self-splicing fitness (ln) meets or surpasses -3.
MET

Given the entry `CCAGAGCAAUAUUACGAAAU` , answer whether its self-splicing fitness (ln) meets or surpasses -3.
NOT MET
